Data origin, for the record: ChEMBL document CHEMBL6153047

Assay: Stability in human liver microsomes assessed as hepatic extraction ratio at 1 uM preincubated with compound followed by NADPH addition by LC-MS/MS analysis
Format: ADME, Microsome
Conditions: read-out: ERH
Could you please report measured hepatic extraction ratio at 1 µM for the items listed next?

Q) Tell me the measured hepatic extraction ratio at 1 µM of N=S(c1ccc(C(F)(F)F)cc1)c1cccnc1 (configuration not stated) , please.
A) < 0.23

Q) Also need COc1ccc(/S(=N/C(=O)C(C)(C)C)c2ccc(C)cc2)cc1 (configuration not stated) , thanks.
A) 0.44

Q) Also need CC(=O)/N=S(\c1ccc(C(F)(F)F)cc1)C1CC1 (configuration not stated) , thanks.
A) < 0.23

Q) Also need COC(=O)/N=S(\c1ccc(C(F)(F)F)cc1)C1CC1 (configuration not stated) , thanks.
A) < 0.23

Q) Also need Cc1ccc(S(=N)C2CC2)cc1 (configuration not stated) , thanks.
A) < 0.23

Q) Also need CS(=N)(=O)c1ccc(C(F)(F)F)cc1 (configuration not stated) , thanks.
A) < 0.23

Q) Also need CCOC(=O)/C(=S(/NC(=O)C(C)(C)C)c1ccccc1)P(=O)(OCC)OCC (configuration not stated) , thanks.
A) > 0.23

Q) Also need COC(=O)C(C(=O)OC)=S(NC(=O)C(C)(C)C)c1ccccc1 (configuration not stated) , thanks.
A) > 0.89

Q) Also need Cc1ccc(S(=O)(=NC(=O)C(C)(C)C)c2ccccc2)cc1 (configuration not stated) , thanks.
A) 0.61

Q) Also need CC(C)(C)C(=O)/N=S(\c1ccc(C(F)(F)F)cc1)C1CC1 (configuration not stated) , thanks.
A) < 0.23

Q) Also need FC(F)(F)c1ccc(/S(=N\c2ccccc2)C2CC2)cc1 (configuration not stated) , thanks.
A) > 0.89

Q) Also need CC(=O)/N=S(/c1ccccc1)c1ccc(C)cc1 (configuration not stated) , thanks.
A) < 0.23

* * *

Experiment: Efflux ratio in human Caco-2 cells measured upto 2 hrs
Format: ADME, cell-based
Settings: caco-2, 2 h
readout kind: Ratio
Give the figure only, with no unit attached.

Q) Tell me the measured Ratio of COc1ccc(/S(C)=N\C(=O)C(C)(C)C)cc1 (stereo unspecified) , please.
A) 0.8

Q) Also need COC(=O)/N=S(\c1ccc(C(F)(F)F)cc1)C1CC1 (stereo unspecified) , thanks.
A) 0.8

Q) Also need Cc1ccc(S(=O)(=NC(=O)C(C)(C)C)c2ccccc2)cc1 (stereo unspecified) , thanks.
A) 0.7

Q) Also need COc1ccc(/S(=N/C(=O)C(C)(C)C)c2ccc(C)cc2)cc1 (stereo unspecified) , thanks.
A) 0.7

Q) Also need Cc1ccc(S(=O)(=O)c2ccccc2)cc1 , thanks.
A) 0.6

* * *

Test: Chemical stability assessed as compound decomposition at pH 1 and 40 degreeC measured after 3 days by HPLC-UV analysis
Assay type: physicochemical
Settings: buffer, time 3 day, read-out: Drug degradation
Could you please report measured degraded at 72 h for the items listed next?
Output spec: scalar in %, unitless text.

Q) Tell me the measured degraded at 72 h of FC(F)(F)c1ccc(/S(=N\c2ccccc2)C2CC2)cc1 (centres undefined) , please.
A) 80

Q) Also need CC(C)(C)C(=O)/N=S(\c1ccc(C(F)(F)F)cc1)C1CC1 (centres undefined) , thanks.
A) 0.9

Q) Also need CCOC(=O)/C(=S(/NC(=O)C(C)(C)C)c1ccccc1)P(=O)(OCC)OCC (centres undefined) , thanks.
A) 57

Q) Also need CCS(=N)c1ccc(C(F)(F)F)cc1 (centres undefined) , thanks.
A) 17

Q) Also need CC(=O)/N=S(\c1ccc(C(F)(F)F)cc1)C1CC1 (centres undefined) , thanks.
A) 20

Q) Also need CC(=O)/N=S(/c1ccccc1)c1ccc(C)cc1 (centres undefined) , thanks.
A) 22

Q) Also need Cc1ccc(S(=N)C2CC2)cc1 (centres undefined) , thanks.
A) 8

Q) Also need N#C/N=S(\c1ccc(C(F)(F)F)cc1)C1CC1 (centres undefined) , thanks.
A) 72

Q) Also need COC(=O)/N=S(\c1ccc(C(F)(F)F)cc1)C1CC1 (centres undefined) , thanks.
A) 27

Q) Also need N=S(c1ccc(C(F)(F)F)cc1)c1cccnc1 (centres undefined) , thanks.
A) 4

Q) Also need Cc1ccc(S(=O)(=NC(=O)C(C)(C)C)c2ccccc2)cc1 (centres undefined) , thanks.
A) 16

Q) Also need COC(=O)C(C(=O)OC)=S(NC(=O)C(C)(C)C)c1ccccc1 (centres undefined) , thanks.
A) 58

* * *

Assay: Dissociation constant, pKa of compound by UV spectroscopy
Assay type: physicochemical
readout kind: pKa
Give the figure only, with no unit attached.

Q) Tell me the measured pKa of Cc1ccc(S(=N)C2CC2)cc1 (centres undefined) , please.
A) 10.9

Q) Also need Cc1ccc(S(=N)(=O)c2ccccc2)cc1 (centres undefined) , thanks.
A) 2.4

Q) Also need CS(=N)(=O)c1ccc(C(F)(F)F)cc1 (centres undefined) , thanks.
A) 2.5

Q) Also need FC(F)(F)c1ccc(/S(=N\c2ccccc2)C2CC2)cc1 (centres undefined) , thanks.
A) 7.2

* * *

Could you please report measured degraded at 72 h for the items listed next?
Assay: Chemical stability assessed as compound decomposition at pH 7.4 and 40 degreeC measured after 3 days by HPLC-UV analysis
Type: physicochemical
Conditions: buffer, time 3 day, read-out: Drug degradation
Output spec: scalar in %, unitless text.

Q) Tell me the measured degraded at 72 h of COc1ccc(/S(=N/C(=O)C(C)(C)C)c2ccc(C)cc2)cc1 (centres undefined) , please.
A) 2

Q) Also need Cc1ccc(S(=N)C2CC2)cc1 (centres undefined) , thanks.
A) 0.5

Q) Also need COC(=O)/N=S(\c1ccc(C(F)(F)F)cc1)C1CC1 (centres undefined) , thanks.
A) 10

Q) Also need CC(=O)/N=S(/c1ccccc1)c1ccc(C)cc1 (centres undefined) , thanks.
A) 4

Q) Also need Cc1ccc(S(=O)(=NC(=O)C(C)(C)C)c2ccccc2)cc1 (centres undefined) , thanks.
A) 0

Q) Also need COC(=O)C(C(=O)OC)=S(NC(=O)C(C)(C)C)c1ccccc1 (centres undefined) , thanks.
A) 6

Q) Also need N=S(c1ccc(C(F)(F)F)cc1)c1cccnc1 (centres undefined) , thanks.
A) 3

Q) Also need CC(=O)/N=S(\c1ccc(C(F)(F)F)cc1)C1CC1 (centres undefined) , thanks.
A) 7

Q) Also need CC(C)(C)C(=O)/N=S(\c1ccc(C(F)(F)F)cc1)C1CC1 (centres undefined) , thanks.
A) 4

Q) Also need CCS(=N)c1ccc(C(F)(F)F)cc1 (centres undefined) , thanks.
A) 13

Q) Also need FC(F)(F)c1ccc(/S(=N\c2ccccc2)C2CC2)cc1 (centres undefined) , thanks.
A) 9

* * *

Experiment: Stability in human hepatocytes assessed as hepatic extraction ratio at 1 uM incubated for 6 hrs by HPLC-MS/MS analysis
Assay type: ADME, cell-based, Hepatocyte
Details: read-out: ERH
Could you please report measured hepatic extraction ratio at 6 h, 1 µM for the items listed next?
Give the figure only, with no unit attached.

Q) Tell me the measured hepatic extraction ratio at 6 h, 1 µM of C[S+]([O-])c1ccc(C(F)(F)F)cc1 (configuration not stated) , please.
A) 0.19

Q) Also need N=S(c1ccc(C(F)(F)F)cc1)c1cccnc1 (configuration not stated) , thanks.
A) 0.08

Q) Also need Cc1ccc(S(=N)C2CC2)cc1 (configuration not stated) , thanks.
A) 0.57

Q) Also need COc1ccc(/S(C)=N\C(=O)C(C)(C)C)cc1 (configuration not stated) , thanks.
A) 0.58

Q) Also need FC(F)(F)c1ccc(/S(=N\c2ccccc2)C2CC2)cc1 (configuration not stated) , thanks.
A) 0.73

Q) Also need CC(C)(C)C(=O)/N=S(\c1ccc(C(F)(F)F)cc1)C1CC1 (configuration not stated) , thanks.
A) 0.16

Q) Also need Cc1ccc(S(=O)(=NC(=O)C(C)(C)C)c2ccccc2)cc1 (configuration not stated) , thanks.
A) 0.33

Q) Also need CS(=N)(=O)c1ccc(C(F)(F)F)cc1 (configuration not stated) , thanks.
A) 0.08

Q) Also need Cc1ccc(S(=O)(=O)c2ccccc2)cc1 , thanks.
A) 0.78

Q) Also need Cc1ccc(S(=N)(=O)c2ccccc2)cc1 (configuration not stated) , thanks.
A) 0.46

Q) Also need COC(=O)/N=S(\c1ccc(C(F)(F)F)cc1)C1CC1 (configuration not stated) , thanks.
A) 0.29

Q) Also need N#C/N=S(\c1ccc(C(F)(F)F)cc1)C1CC1 (configuration not stated) , thanks.
A) 0.18

Q) Also need CC(=O)/N=S(/c1ccccc1)c1ccc(C)cc1 (configuration not stated) , thanks.
A) 0.26

Q) Also need CCS(=N)c1ccc(C(F)(F)F)cc1 (configuration not stated) , thanks.
A) 0.17

Q) Also need COc1ccc(/S(=N/C(=O)C(C)(C)C)c2ccc(C)cc2)cc1 (configuration not stated) , thanks.
A) 0.46

Q) Also need CC(=O)/N=S(\c1ccc(C(F)(F)F)cc1)C1CC1 (configuration not stated) , thanks.
A) 0.1
